# IC50 annotations
# measured_on: human Nav1.8 (Homo sapiens, UniProt Q9Y5Y9)
# Construct: expressed in transfected cells; host or cells: HEK293 (HEK293-Nav1.8)
# Sequence (Q9Y5Y9 whole entry): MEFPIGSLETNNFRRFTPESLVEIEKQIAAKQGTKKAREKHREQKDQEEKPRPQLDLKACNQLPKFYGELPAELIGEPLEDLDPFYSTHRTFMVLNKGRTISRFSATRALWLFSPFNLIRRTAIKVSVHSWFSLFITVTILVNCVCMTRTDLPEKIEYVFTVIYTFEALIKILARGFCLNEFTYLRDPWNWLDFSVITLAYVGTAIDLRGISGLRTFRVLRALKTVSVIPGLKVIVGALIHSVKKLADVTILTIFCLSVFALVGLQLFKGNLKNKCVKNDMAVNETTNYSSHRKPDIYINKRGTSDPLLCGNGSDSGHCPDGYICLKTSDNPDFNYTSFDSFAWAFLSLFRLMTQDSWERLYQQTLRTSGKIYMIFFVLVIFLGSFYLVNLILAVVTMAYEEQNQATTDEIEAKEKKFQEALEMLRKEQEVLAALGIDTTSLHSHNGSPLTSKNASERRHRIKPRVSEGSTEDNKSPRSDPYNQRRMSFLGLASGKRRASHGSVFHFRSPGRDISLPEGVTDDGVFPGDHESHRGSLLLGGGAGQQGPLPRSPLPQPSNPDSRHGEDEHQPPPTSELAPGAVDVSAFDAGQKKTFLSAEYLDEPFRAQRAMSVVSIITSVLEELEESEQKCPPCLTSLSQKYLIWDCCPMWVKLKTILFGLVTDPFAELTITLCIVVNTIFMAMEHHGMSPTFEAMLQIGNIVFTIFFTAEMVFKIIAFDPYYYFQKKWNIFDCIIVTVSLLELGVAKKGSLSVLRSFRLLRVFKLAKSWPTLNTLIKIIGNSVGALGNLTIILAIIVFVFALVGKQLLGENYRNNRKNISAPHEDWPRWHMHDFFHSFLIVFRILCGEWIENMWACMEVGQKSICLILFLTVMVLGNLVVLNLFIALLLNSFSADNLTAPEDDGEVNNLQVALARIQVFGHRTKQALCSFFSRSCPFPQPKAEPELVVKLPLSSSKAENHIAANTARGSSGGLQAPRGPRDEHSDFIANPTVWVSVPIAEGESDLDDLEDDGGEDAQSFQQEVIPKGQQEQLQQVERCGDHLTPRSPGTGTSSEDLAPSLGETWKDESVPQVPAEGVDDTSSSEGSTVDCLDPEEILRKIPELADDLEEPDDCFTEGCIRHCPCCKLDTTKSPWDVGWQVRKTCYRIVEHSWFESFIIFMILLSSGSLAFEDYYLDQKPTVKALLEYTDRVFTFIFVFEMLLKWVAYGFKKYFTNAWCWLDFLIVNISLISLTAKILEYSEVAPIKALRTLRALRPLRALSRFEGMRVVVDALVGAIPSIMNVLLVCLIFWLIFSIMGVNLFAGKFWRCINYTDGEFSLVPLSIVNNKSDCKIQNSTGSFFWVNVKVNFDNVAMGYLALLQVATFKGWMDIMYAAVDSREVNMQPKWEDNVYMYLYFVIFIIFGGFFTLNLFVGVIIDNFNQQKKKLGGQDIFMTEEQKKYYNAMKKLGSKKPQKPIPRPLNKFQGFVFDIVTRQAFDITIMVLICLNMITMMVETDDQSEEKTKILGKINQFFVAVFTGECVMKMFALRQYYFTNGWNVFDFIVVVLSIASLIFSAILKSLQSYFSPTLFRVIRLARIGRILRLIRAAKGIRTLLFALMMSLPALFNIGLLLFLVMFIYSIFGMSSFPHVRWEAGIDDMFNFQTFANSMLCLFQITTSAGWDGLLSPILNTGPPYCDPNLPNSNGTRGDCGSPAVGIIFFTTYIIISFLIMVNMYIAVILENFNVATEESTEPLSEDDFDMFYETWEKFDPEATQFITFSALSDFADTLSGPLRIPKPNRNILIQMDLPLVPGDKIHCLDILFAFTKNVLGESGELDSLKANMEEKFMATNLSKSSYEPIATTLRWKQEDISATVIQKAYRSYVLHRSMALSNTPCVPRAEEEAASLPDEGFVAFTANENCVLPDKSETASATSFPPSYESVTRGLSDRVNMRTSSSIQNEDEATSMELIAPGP
# Sequence (Q07699 19-218 partner): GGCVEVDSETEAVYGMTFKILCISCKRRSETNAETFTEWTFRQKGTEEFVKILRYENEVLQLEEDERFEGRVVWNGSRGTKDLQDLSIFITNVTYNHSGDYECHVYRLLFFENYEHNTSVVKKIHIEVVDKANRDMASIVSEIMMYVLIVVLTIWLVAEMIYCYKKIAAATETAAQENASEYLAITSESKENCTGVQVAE
# assay_method_text: Nav1.8 sodium channels assay, QPatch 48 HTX electrophysiology in HEK293-Nav1.8 cells
# Type: cell-based
# test_conditions: at least one set of experimental runs; read-out: average pIC50 value against Nav1.8 (converted)

# compound, measured_on, IC50
rows = [
    ("Cc1cc(F)ccc1N1CN(c2cn[nH]c2)C(=O)c2cc(C(F)(F)F)ccc21 [Example 18]", "human Nav1.8 (Homo sapiens, UniProt Q9Y5Y9)", "794 to 7940 nM"),
    ("Cc1[nH]c(=O)ccc1N1CN(C23CC(C2)C3)c2cc(C(F)(F)F)ccc2C1=O [Example 237]", "human Nav1.8 (Homo sapiens, UniProt Q9Y5Y9)", "794 to 7940 nM"),
    ("Cc1[nH]c(=O)ccc1N1CN(c2ccc(F)c(F)c2C)c2ccc(C(F)(F)F)cc2C1=O [Example 96]", "human Nav1.8 (Homo sapiens, UniProt Q9Y5Y9)", "≤ 100 nM"),
    ("CC1=C(N2CN(c3ccc(F)cc3C)c3cc(C(F)(F)F)ccc3C2=O)CNC(=O)N1 [Example 271]", "human Nav1.8 (Homo sapiens, UniProt Q9Y5Y9)", "≤ 100 nM"),
    ("Cc1cc(F)ccc1N1CN(c2ccc(=O)[nH]c2C)C(=O)c2cc(C#N)c(OC(F)(F)F)cc21 [Example 112]", "human Nav1.8 (Homo sapiens, UniProt Q9Y5Y9)", "≤ 100 nM"),
    ("Cc1cc(F)ccc1N1CN(C2CCS(=O)(=O)CC2)C(=O)c2ccc(C(F)(F)F)cc21 [Example 17]", "human Nav1.8 (Homo sapiens, UniProt Q9Y5Y9)", "794 to 7940 nM"),
    ("Cc1[nH]c(=O)ccc1N1CN(c2ccc(F)cc2Br)c2ccc(C(F)(F)F)cc2C1=O [Example 142]", "human Nav1.8 (Homo sapiens, UniProt Q9Y5Y9)", "≤ 100 nM"),
    ("Cc1ccc2c(c1)N(c1ccc(F)cc1C)CN(c1ccc(=O)[nH]c1C)C2=O [Example 57]", "human Nav1.8 (Homo sapiens, UniProt Q9Y5Y9)", "≤ 100 nM"),
    ("CCc1cc(F)ccc1N1CN(c2cc[n+]([O-])cc2C)C(=O)c2cc(Cl)c(C#N)cc21 [Example 247]", "human Nav1.8 (Homo sapiens, UniProt Q9Y5Y9)", "≤ 100 nM"),
    ("Cc1cc(F)ccc1N1CN(c2ccc[n+]([O-])c2)C(=O)c2cc(C(F)(F)F)ccc21 [Example 249]", "human Nav1.8 (Homo sapiens, UniProt Q9Y5Y9)", "794 to 7940 nM"),
    ("O=C1c2ccc(C(F)(F)F)cc2N(c2ccc(F)cc2F)CN1c1ccc(=O)[nH]c1 [Example 42]", "human Nav1.8 (Homo sapiens, UniProt Q9Y5Y9)", "794 to 7940 nM"),
    ("CC1=C(N2CN(c3ccc(F)cc3C)c3cc(C(F)(F)F)ccc3C2=O)CCC(=O)N1 [Example 269]", "human Nav1.8 (Homo sapiens, UniProt Q9Y5Y9)", "≤ 100 nM"),
    ("Cc1cc(F)ccc1N1CN([C@H]2CCC(=O)N[C@@H]2C)C(=O)c2cc(C(F)(F)F)ccc21 [Example 33]", "human Nav1.8 (Homo sapiens, UniProt Q9Y5Y9)", "≤ 100 nM"),
    ("Cc1[nH]c(=O)ccc1N1CN(c2ccccc2CC(F)(F)F)c2ccc(C(F)(F)F)cc2C1=O [Example 240]", "human Nav1.8 (Homo sapiens, UniProt Q9Y5Y9)", "≤ 100 nM"),
    ("Cc1[nH]c(=O)ccc1N1CN(c2ccc(F)cc2C(C)C)c2cc(OC(F)(F)F)ccc2C1=O [Example 103]", "human Nav1.8 (Homo sapiens, UniProt Q9Y5Y9)", "≤ 100 nM"),
    ("Cc1cc(F)ccc1N1CN(c2ccc(C(N)=O)nc2)C(=O)c2c1ccc(Cl)c2F [Example 7]", "human Nav1.8 (Homo sapiens, UniProt Q9Y5Y9)", "794 to 7940 nM"),
]

Each recorded value in this set is attributed to patent US20230103791A1.
